Examples of molecules with documented LPS % cell toxicity follow.
test system: primary rat microglia; details: rat
Structures can show the parent of a compound that is named as a salt.
QUANTITY: LPS % cell toxicity (%)

| MOLECULE | READOUT_NUMBER |
| --- | --- |
| C#CCN(C)[C@H](C)Cc1ccccc1 | 0 |
| Nc1nc(N)nc(NC2CC2)n1 | 0 |
| Cc1ccccc1OCC(O)CO (centres unmarked) | 0 |
| CCN(C)C(=O)Oc1cccc([C@H](C)N(C)C)c1 | 0 |
| C[C@]12CC[C@@H]3c4ccc(O)cc4CC[C@H]3[C@@H]1CCC2=O | 0 |
| Nc1nc2[nH]cc(CCc3ccc(C(=O)N[C@@H](CCC(=O)O)C(=O)O)cc3)c2c(=O)[nH]1 | 0 |
| C[C@]12CC[C@@H]3c4ccc(O)cc4CC[C@H]3[C@@H]1CC[C@@H]2OC(=O)CCC1CCCC1 [Estradiol Cypionate] | 0 |
| C=C[C@H]1CN2CC[C@H]1C[C@H]2[C@H](OC(=O)OCC)c1ccnc2ccc(OC)cc12 [Quinine Ethyl Carbonate] | 0 |
| COC1=CC(=O)C[C@@H](C)[C@]12Oc1c(Cl)c(OC)cc(OC)c1C2=O | 0 |
| CCOc1ccc2nc3cc(N)ccc3c(N)c2c1 [Ethacridine Lactate] | 0 |
| CCN(CC)CC#CCOC(=O)C(O)(c1ccccc1)C1CCCCC1 (centres unmarked) | 1 |
| CC(=O)N[C@@H](CC(C)C)C(=O)O | 3 |
| CN[C@@H]1[C@H](O)[C@H](NC)[C@H]2O[C@@]3(O)C(=O)C[C@@H](C)O[C@H]3O[C@@H]2[C@H]1O | 0 |
| Cc1cccc(Nc2ccccc2C(=O)O)c1C | 1 |
| CC(=O)Nc1ccc(S(=O)(=O)c2ccc(NC(C)=O)cc2)cc1 | 0 |
| C#CCN[C@@H]1CCc2ccccc21 [Rasagiline, reference compound] | 1 |
| CCC(=O)NCC[C@@H]1CCc2ccc3c(c21)CCO3 | 0 |
| Nc1ncnc2c1ncn2[C@@H]1O[C@H](CO)[C@@H](O)[C@H]1O | 1 |
| CC(=O)O[C@H]1C[C@@H]2CC[C@@H]3[C@H](CC[C@@]4(C)[C@H]3C[C@H]([N+]3(C)CCCCC3)[C@@H]4OC(C)=O)[C@@]2(C)C[C@@H]1[N+]1(C)CCCCC1 [Pancuronium] | 0 |
| CCOC(N)=O [Ethyl carbamate] | 0 |
| C=CCN1CC[C@]23c4c5ccc(O)c4O[C@H]2C(=O)CC[C@@]3(O)[C@H]1C5 [Naloxone] | 1 |
| CCOC(=O)OC(C)OC1=C(C(=O)Nc2ccccn2)N(C)S(=O)(=O)c2ccccc21 (centres unmarked) | 0 |
| C[C@@H]1O[C@@H](O[C@H]2C[C@@H](O)[C@]3(CO)[C@H]4[C@H](O)C[C@]5(C)[C@@H](C6=CC(=O)OC6)CC[C@]5(O)[C@@H]4CC[C@]3(O)C2)[C@H](O)[C@H](O)[C@H]1O | 0 |
| CC(=O)NS(=O)(=O)c1ccc(NC(=O)c2ccccc2C(=O)O)cc1 [Phthalylsulfacetamide] | 0 |
| CCN(CC)CCOCCOC(=O)C1(c2ccccc2)CCCC1 [Carbetapentane Citrate] | 0 |
| O=C(O)c1cc(-c2ccc(F)cc2F)ccc1O | 0 |
| CCCN(CCC)CCc1cccc2c1CC(=O)N2 | 0 |
| CCc1cc(C(N)=S)ccn1 [Ethionamide] | 0 |
| COc1ccc2c(c1)c(CC(=O)O)c(C)n2C(=O)c1ccc(Cl)cc1 | 0 |
| O=C(O)/C=C/C(=O)O | 0 |
| CCC1(C)CC(=O)NC1=O (centres unmarked) [Ethosuximide] | 0 |
| NCCNCCNCCN | 0 |
| COc1cc(Cc2cnc(N)nc2N)cc(OC)c1OC | 0 |
| CC(=O)Oc1ccccc1C(=O)O | 0 |
| CN[C@@H]1[C@H](O[C@H]2[C@H](O[C@H]3[C@H](O)[C@@H](O)[C@H](NC(=N)N)[C@@H](O)[C@@H]3NC(=N)N)O[C@@H](C)[C@]2(O)CO)O[C@@H](CO)[C@H](O)[C@H]1O [Dihydrostreptomycin Sulfate] | 0 |

----------
# Fibrin % cell toxicity annotations
test system: primary rat microglia; test: Cell toxicity (dead cells, size <150 μm2) in coated fibrin (cFib) assay; conditions: primary microglia HTS, 10 μM, fibrin assay, cell size <150 μm^2 as marker of toxicity;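 further: share of dead cells sized under 150 µm2 at 10 µM in fibrin-stimulated microglia HTS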
QUANTITY: Fibrin % cell toxicity (%)

| COMPOUND | READING_UNIT | READOUT_NUMBER |
| --- | --- | --- |
| COc1ccc(/C=C/C(=O)Nc2ccccc2C(=O)O)cc1OC | % | 0 |
| C#C[C@]1(O)CC[C@H]2[C@@H]3[C@H](C)CC4=C(CCC(=O)C4)[C@H]3CC[C@@]21C | % | 0 |
| c1ccc(CC2=NCCN2)cc1 | % | 0 |
| CC(C)(C)NC[C@H](O)COc1nsnc1N1CCOCC1 [Timolol] | % | 1 |
| [H]/N=C(/N)NS(=O)(=O)c1ccc(N)cc1 | % | 1 |
| Cc1cccc(Nc2ccncc2S(=O)(=O)NC(=O)NC(C)C)c1 [Torasemide] | % | 1 |
| COc1ccc(CN2CCNCC2)c(OC)c1OC | % | 1 |
| Cc1ccc(C(=O)C(C)CN2CCCCC2)cc1 (stereo not drawn) | % | 1 |
| NC(=O)NS(=O)(=O)c1ccc(N)cc1 [Sulfacarbamide] | % | 1 |
| O=C(O)CCC(=O)Nc1ccc(S(=O)(=O)Nc2nccs2)cc1 | % | 1 |
| CC(=O)NS(=O)(=O)c1ccc(N)cc1 [Sulfacetamide] | % | 1 |
| COc1cc(NS(=O)(=O)c2ccc(N)cc2)ncn1 | % | 1 |
| CC(=O)Nc1ccc(S(=O)(=O)Nc2ccc([N+](=O)[O-])cc2)cc1 | % | 1 |
| Nc1ccc(S(=O)(=O)Nc2ccc(Cl)nn2)cc1 | % | 1 |
| CN(C)CCc1c[nH]c2ccc(C[C@H]3COC(=O)N3)cc12 | % | 1 |
| C[N+]1(C)[C@@H]2C[C@@H](OC(=O)C(O)(c3cccs3)c3cccs3)C[C@H]1[C@@H]1O[C@@H]12 | % | 0 |
| C[C@]12CC[C@H]3[C@@H](CC[C@@]45O[C@@H]4C(O)=C(C#N)C[C@]35C)[C@@H]1CC[C@@H]2O | % | 0 |
| CC(C)[C@H](N)C(=O)OCC(CO)OCn1cnc2c(=O)nc(N)[nH]c21 (stereo partly drawn) | % | 0 |
| Nc1ncnc2c1ncn2[C@@H]1O[C@H](CO)[C@@H](O)[C@@H]1O | % | 1 |
| CN1CCN(C(=O)OC2c3nccnc3C(=O)N2c2ccc(Cl)cn2)CC1 (stereo not drawn) | % | 1 |
| CN(C)CCN(Cc1ccccc1)c1ccccn1 | % | 1 |

----------
Some compounds, each annotated with its measured LPS % cell toxicity.
tested on: primary rat microglia; settings: rat

| MOLECULE | READING_UNIT | LPS % cell toxicity |
| --- | --- | --- |
| COP(=O)(OC)OC=C(Cl)Cl | % | 1 |
| O=c1cc[nH]c(=S)[nH]1 | % | 0 |
| CC(=O)[C@H]1CC[C@H]2[C@@H]3CC[C@@H]4C[C@H](O)CC[C@]4(C)[C@H]3CC[C@]12C | % | 0 |
| Cc1ccc(-c2ncc(Cl)cc2-c2ccc(S(C)(=O)=O)cc2)cn1 | % | 0 |
| [N-]=[N+]=CC(=O)OC[C@H](N)C(=O)O | % | 0 |

----------
system: LPS-induced microglia activation; test: Image-based assay of LPS-induced microglia activation (HTS and dose response); assay type: cell-based, rat
Structures can show the parent of a compound that is named as a salt.
Reported LPS % inhibition by item:
QUANTITY: LPS % inhibition

| COMPOUND | QUANTITY | RESULT |
| --- | --- | --- |
| COCc1c(C(C)C)nc(C(C)C)c(/C=C/[C@@H](O)C[C@@H](O)CC(=O)O)c1-c1ccc(F)cc1 [Cerivastatin, Cerivastatin Na] | LPS % inhibition | 101% |
| CN1CCc2cccc3c2[C@H]1Cc1ccc(O)c(O)c1-3.Cl [R(−)-Apomorphine hydrochloride, reference compound] | LPS % inhibition | 18% |
| Oc1ccc2c3c1O[C@H]1[C@@H](O)CC[C@@]4(O)[C@@H](C2)N(CC2CCC2)CC[C@]314 [Nalbuphine Hydrochloride] | LPS % inhibition | 15% |
| C=C[C@H]1C[N@@]2CC[C@H]1C[C@H]2[C@H](O)c1ccnc2ccc(OC)cc12 [Quinine] | LPS % inhibition | −7% |
| CN1[C@@H]2C[C@@H](OC(=O)[C@H](CO)c3ccccc3)C[C@H]1[C@@H]1O[C@@H]12 [Scopolamine] | LPS % inhibition | −6% |
| CC(C)NC(=N)NC(=N)Nc1ccc(Cl)cc1 [Proguanil; Chlorguanide Hydrochloride] | LPS % inhibition | 20% |
| CC[C@H](C)C(=O)O[C@H]1C[C@H](O)C=C2C=C[C@H](C)[C@H](CC[C@@H](O)C[C@@H](O)CC(=O)O)[C@H]21 [Pravastatin Sodium] | LPS % inhibition | 11% |
| C#C[C@]1(O)CC[C@H]2[C@@H]3CCC4=CC(=O)CC[C@@H]4[C@H]3CC[C@@]21C [Norethindrone] | LPS % inhibition | 15% |
| CC[C@H]1CN2CCc3cc(OC)c(OC)cc3[C@@H]2C[C@@H]1C[C@H]1NCCc2cc(OC)c(OC)cc21 [Emetine, Emetine Dihydrochloride] | LPS % inhibition | 115% |
| CNCCC(Oc1ccc(C(F)(F)F)cc1)c1ccccc1.Cl (centres unmarked) [Fluoxetine Hydrochloride, Fluoxetine] | LPS % inhibition | 65% |
| CO[C@H]1/C=C/O[C@@]2(C)Oc3c(C)c(O)c4c(O)c(c(/C=N/N5CCN(C)CC5)c(O)c4c3C2=O)NC(=O)/C(C)=C\C=C\[C@H](C)[C@H](O)[C@@H](C)[C@@H](O)[C@@H](C)[C@H](OC(C)=O)[C@@H]1C [Rifampicin] | LPS % inhibition | 7% |
